target: Human TRPA1 expressing CHO cells (Homo sapiens, UniProt O75762); construct: expressed in transfected cells; host or cells: CHO cells (under G-418 selection); assay: 45Calcium uptake assay: inhibition of AITC induced cellular uptake of radioactive calcium; type: cell-based; settings: 10.0 μM test compound; AITC 30 μM; human TRPA1 CHO cells; read-out: Percentage inhibition at 10.0 μM
Sequence (O75762 whole entry): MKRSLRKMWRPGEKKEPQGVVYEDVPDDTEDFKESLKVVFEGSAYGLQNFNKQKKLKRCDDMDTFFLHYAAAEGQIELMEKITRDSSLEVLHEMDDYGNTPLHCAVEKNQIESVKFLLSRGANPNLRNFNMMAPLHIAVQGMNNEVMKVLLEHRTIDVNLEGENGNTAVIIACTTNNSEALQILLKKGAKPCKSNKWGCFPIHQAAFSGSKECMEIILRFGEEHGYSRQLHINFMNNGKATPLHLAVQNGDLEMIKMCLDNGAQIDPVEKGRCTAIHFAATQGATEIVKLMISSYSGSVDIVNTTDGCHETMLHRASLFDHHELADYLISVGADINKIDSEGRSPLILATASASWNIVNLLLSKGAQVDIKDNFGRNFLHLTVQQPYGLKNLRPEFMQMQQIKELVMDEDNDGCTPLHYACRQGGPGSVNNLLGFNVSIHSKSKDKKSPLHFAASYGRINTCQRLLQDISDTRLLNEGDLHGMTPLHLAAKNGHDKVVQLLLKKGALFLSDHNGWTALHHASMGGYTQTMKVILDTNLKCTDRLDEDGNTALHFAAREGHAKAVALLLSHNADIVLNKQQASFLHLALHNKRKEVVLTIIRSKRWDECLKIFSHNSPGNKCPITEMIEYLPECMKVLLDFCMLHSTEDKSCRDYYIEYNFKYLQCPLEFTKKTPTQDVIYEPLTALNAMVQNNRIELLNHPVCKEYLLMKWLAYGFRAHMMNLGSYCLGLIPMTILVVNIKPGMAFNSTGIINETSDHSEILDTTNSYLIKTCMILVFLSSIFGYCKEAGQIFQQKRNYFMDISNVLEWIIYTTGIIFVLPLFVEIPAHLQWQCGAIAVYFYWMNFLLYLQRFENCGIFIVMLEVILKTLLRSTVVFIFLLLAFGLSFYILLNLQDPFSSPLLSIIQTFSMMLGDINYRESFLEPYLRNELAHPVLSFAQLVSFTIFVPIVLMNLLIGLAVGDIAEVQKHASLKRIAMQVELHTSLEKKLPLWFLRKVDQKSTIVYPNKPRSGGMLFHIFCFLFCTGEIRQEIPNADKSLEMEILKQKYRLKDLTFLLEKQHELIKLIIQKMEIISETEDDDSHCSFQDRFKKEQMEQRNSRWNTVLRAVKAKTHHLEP
MEASURED_METRIC: inhibition at 10 µM (%)

Worked cases, inhibition at 10 µM given:
## Task For the compound shown here, Cn1c(=O)c2c(CC(=O)Nc3nc(-c4ccc(F)c(C(F)(F)F)c4)cs3)cccc2n(C)c1=O [Example 38] , give the reported inhibition at 10 µM.
## Result 98.7

## Task I would be grateful if you could share the reported inhibition at 10 µM for Cn1c(=O)c2c(CC(=O)Nc3nc(-c4ccc(OC(F)(F)F)c(F)c4)cs3)cccc2n(C)c1=O [Example 41] .
## Result 99.7

(A) Cn1c(=O)c2c(CC(=O)Nc3nc(-c4cc(F)c(Cl)cc4Cl)cs3)cccc2n(C)c1=O [Example 63]
(B) CCn1c(=O)c2c(CC(=O)Nc3nc(-c4ccc(Cl)cc4)cs3)cccc2n(CC)c1=O [Example 25]
## Task Please indicate which entry, A or B , has the lower recorded inhibition at 10 µM value. Please reply using the label of the selected record.
## Result B

###

assay: Plasma levels after oral dosing in the rat pain models; assay type: in vivo; conditions: rat, plasma, oral; 30 mg/kg (p.o.); FCA model, rats
MEASURED_METRIC: concentration at 1 h (ng/mL)
Write the value in ng/mL as a bare number.

## Task What concentration at 1 h value was documented for this molecule, Cn1c(=O)c2c(CC(=O)Nc3nc(-c4cccc(C(F)(F)F)c4)cs3)cccc2n(C)c1=O ?
## Result 3430

###

target: Human TRPA1 expressing CHO cells (Homo sapiens, UniProt O75762); construct: expressed in transfected cells; host or cells: CHO cells (under G-418 selection); test: 45Calcium uptake assay: inhibition of AITC induced cellular uptake of radioactive calcium; assay type: cell-based; settings: 1.0 μM test compound; AITC 30 μM; human TRPA1 CHO cells; read-out: Percentage inhibition at 1.0 μM
MEASURED_METRIC: inhibition at 1 µM (%)

Completed entries (count: 3):
## Task For the record CCc1ccc(-c2csc(NC(=O)Cc3cccc4c3c(=O)n(C)c(=O)n4C)n2)cc1 , what value of inhibition at 1 µM is listed for Human TRPA1 expressing CHO cells (Homo sapiens, UniProt O75762)?
## Result 96.2

## Task Requested read-out inhibition at 1 µM, target or system Human TRPA1 expressing CHO cells (Homo sapiens, UniProt O75762), entry Cn1c(=O)c2c(CC(=O)Nc3nc4ccccc4s3)cccc2n(C)c1=O
## Result 5.6

## Task Give Human TRPA1 expressing CHO cells (Homo sapiens, UniProt O75762) inhibition at 1 µM for Cn1c(=O)c2c(CC(=O)Nc3nc(-c4ccc(OCC(F)(F)F)c(F)c4)cs3)cccc2n(C)c1=O
## Result 96.8

(1) Cn1c(=O)c2c(CC(=O)Nc3nc(-c4c(Cl)ccc(F)c4Cl)cs3)cccc2n(C)c1=O
(2) Cn1c(=O)c2c(CC(=O)Nc3nc(-c4ccc(F)cc4Cl)cs3)cccc2n(C)c1=O
## Task Lab note: record which item had the higher inhibition at 1 µM, 1 or 2 . Return value: the label identifying the chosen record.
## Result 2
(2: 74.1%, 1: 11.5%)

(1) CC(C)Cc1ccc(-c2csc(NC(=O)Cc3cccc4c3c(=O)n(C)c(=O)n4C)n2)cc1
(2) Cn1c(=O)c2c(CC(=O)Nc3nc(-c4ccc(OC(F)F)c(F)c4)cs3)cccc2n(C)c1=O
## Task Parameter check: reported inhibition at 1 µM is higher for which label, 1 or 2 ? Respond with the label that goes with your answer.
## Result 1

###

Target: Human TRPA1 expressing CHO cells (Homo sapiens)
Construct: expressed in transfected cells; host or cells: CHO cells (under G-418 selection)
Assay: 45Calcium uptake assay: inhibition of AITC induced cellular uptake of radioactive calcium
Assay type: cell-based
Conditions: 10.0 μM test compound; AITC 30 μM; human TRPA1 CHO cells; read-out: Percentage inhibition at 10.0 μM
Procedure: The illustrative examples of the present invention are screened for TRPA1 activity according to a modified procedure described in (a) Tóth, A. et al. Life Sciences (2003), 73, 487-498. […] Radioactivity in the lysate was measured in Packard Top count after addition of liquid scintillant. […] IC50 value was calculated from concentration response curve by nonlinear regression analysis using GraphPad PRISM software.
MEASURED_METRIC: inhibition at 10 µM (%)

Before answering, review these 5 worked examples.
## Task // lookup inhibition at 10 µM for Cn1c(=O)c2c(CC(=O)Nc3nc(-c4cccc(F)c4F)cs3)cccc2n(C)c1=O
## Result 95.8

## Task Name the recorded inhibition at 10 µM for Cn1c(=O)c2c(CC(=O)Nc3ccn(-c4ccc(Cl)cc4F)n3)cccc2n(C)c1=O .
## Result 90.7

## Task Would you mind telling me what inhibition at 10 µM value was observed for Cn1c(=O)c2c(CC(=O)Nc3ccc(-c4ccc(Cl)cc4)cn3)cccc2n(C)c1=O ?
## Result 71.5

## Task Which measured inhibition at 10 µM value corresponds to Cn1c(=O)c2c(CC(=O)Nc3nc(-c4cccc(Cl)c4F)cs3)cccc2n(C)c1=O ?
## Result 98.9

## Task Fill in: inhibition at 10 µM of Cn1c(=O)c2c(CC(=O)Nc3nc(-c4ccc(F)cc4)cs3)cccc2n(C)c1=O is ___
## Result 43.8

(P) Cn1c(=O)c2c(CC(=O)Nc3nc(-c4cc(C(F)(F)F)ccc4F)cs3)cccc2n(C)c1=O
(Q) O=C(Cc1cccc2[nH]c(=O)[nH]c(=O)c12)Nc1nc(-c2ccc(Cl)cc2)cs1
## Task In terms of reported inhibition at 10 µM, does P or Q have the smaller number? Mark your answer with the label of the selected entry.
## Result Q

(1) Cn1c(=O)c2c(CC(=O)Nc3nc(-c4ccc(Br)cc4)cs3)cccc2n(C)c1=O
(2) Cn1c(=O)c2c(CC(=O)Nc3nc(-c4ccc(OCC5CC5)c(F)c4)cs3)cccc2n(C)c1=O
## Task Hi, I'm comparing two records. Which one has the lower inhibition at 10 µM, 1 or 2 ? Choose, then provide that item's label.
## Result 2
(2: 41.3%, 1: 99.2%)

(I) Cc1ccc(Oc2ccc(NC(=O)Cc3cccc4c3c(=O)n(C)c(=O)n4C)cc2)cc1
(II) Cn1c(=O)c2c(CC(=O)Nc3nc(-c4c(F)ccc(F)c4F)cs3)cccc2n(C)c1=O
## Task Hi, I'm comparing I with II and wondering which one has the bigger number for inhibition at 10 µM. Any idea? Give the label under which the chosen entry appears.
## Result II

###

Below, each of the molecules is paired with its reported IC50 value.
target: Human TRPA1 expressing CHO cells (Homo sapiens); assay: 45Calcium uptake assay: inhibition of AITC induced cellular uptake of radioactive calcium; details: AITC 30 μM; human TRPA1 CHO cells; read-out: IC50 value (range)

## Task Look up IC50 for this molecule: Cn1c(=O)c2c(CC(=O)Nc3nc(-c4cc(Cl)ccc4F)cs3)cccc2n(C)c1=O
## Result > 100 nM

## Task So what does the record say about IC50 for Cn1c(=O)c2c(CC(=O)Nc3ccn(-c4cccc(C(F)(F)F)c4)n3)cccc2n(C)c1=O ?
## Result 50.1 to 100 nM

## Task Consider the molecule Cn1c(=O)c2c(CC(=O)Nc3nc(-c4ccc(F)c(C(F)(F)F)c4)cs3)cccc2n(C)c1=O and give its measured IC50.
## Result < 50 nM

## Task Could you tell me which IC50 is on file for Cn1c(=O)c2c(CC(=O)Nc3nc(-c4ccc(F)c(Cl)c4)cs3)cccc2n(C)c1=O ?
## Result 50.1 to 100 nM

## Task What IC50 value was documented for this molecule, Cn1c(=O)c2c(CC(=O)Nc3nc(-c4cc(C(F)(F)F)ccc4Cl)cs3)cccc2n(C)c1=O ?
## Result > 100 nM

---
## Task Return reported IC50; argument: Cn1c(=O)c2c(CC(=O)Nc3nc(-c4ccc(C(F)(F)F)c(F)c4)cs3)cccc2n(C)c1=O
## Result < 50 nM

## Task Bench note: what IC50 did Cn1c(=O)c2c(CC(=O)Nc3nc(-c4ccc(C(C)(C)C)cc4)cs3)cccc2n(C)c1=O show?
## Result 50.1 to 100 nM

## Task Param item = Cn1c(=O)c2c(CC(=O)Nc3nc(-c4ccc(OC(F)(F)F)c(F)c4)cs3)cccc2n(C)c1=O ; retrieve measured IC50.
## Result < 50 nM

## Task Using the record for COc1c(F)cc(-c2csc(NC(=O)Cc3cccc4c3c(=O)n(C)c(=O)n4C)n2)cc1F , report its IC50.
## Result < 50 nM

## Task Item Cn1c(=O)c2c(CC(=O)Nc3nc(-c4ccc(Br)cc4)cs3)cccc2n(C)c1=O has what recorded IC50?
## Result 50.1 to 100 nM
